Classification field: enter MET for log10 Koc (L/kg) values not below 2, NOT MET for values below it.

1) O=NN(c1ccccc1)c1ccccc1 = MET
2) COc1ccc(NC(=O)N(C)C)cc1Cl = NOT MET
3) CCN(CC)C(=O)C(Cl)=C(C)OP(=O)(OC)OC = NOT MET
4) c1ccc2cc3cc4ccccc4cc3cc2c1 = MET
5) O=C(Nc1ccccc1)NC1CC1 = NOT MET
6) O=C1C(Cl)=C(Cl)C(=O)C(Cl)=C1Cl = MET
7) O=C1c2ccccc2C(=O)c2ccccc21 = MET
8) COC(=O)C(C)Oc1ccc(Oc2ccc(Cl)cc2Cl)cc1 (configuration not stated) = MET
9) ClCCOCCCl = NOT MET
10) CNC(=O)Nc1ccccc1 = NOT MET
11) Cc1cccc(C)c1 = MET
12) CCOP(=S)(Oc1ccc([N+](=O)[O-])cc1)c1ccccc1 (configuration not stated) = MET
13) O=[N+]([O-])c1ccc(Br)cc1 = MET
14) O=C(O)c1c(Cl)ccc(Cl)c1O = MET
15) Clc1ccc(Cl)c(-c2c(Cl)ccc(Cl)c2Cl)c1 = MET
16) CN(C)C(=O)Nc1ccc(Cl)c(Cl)c1 = MET
17) Clc1ccc(-c2ccccc2Cl)c(Cl)c1 = MET
18) Nc1cccc([N+](=O)[O-])c1 = NOT MET
19) Cc1ccc(NC(=O)N(C)C)cc1 = NOT MET
20) CCCN(CCC)c1c([N+](=O)[O-])cc(C(F)(F)F)c(N)c1[N+](=O)[O-] = MET
21) Cc1cc(S(=O)(=O)c2ccccc2)ccc1NS(=O)(=O)C(F)(F)F = MET
22) CCCCc1ccccc1 = MET
23) CC(C)[C@H](C(=O)OC(C#N)c1cccc(Oc2ccccc2)c1)c1ccc(OC(F)F)cc1 (some centres not stated) = MET
24) O=CNC(N1CCN(C(NC=O)C(Cl)(Cl)Cl)CC1)C(Cl)(Cl)Cl (configuration not stated) = MET
25) CNC(=O)Nc1ccc(OC)c(Cl)c1 = NOT MET

====

TEST READOUT: log10 Koa

1. CC1CCCCC1 = 3.03
2. Clc1cc(Cl)c2cc(Cl)cc(Cl)c2c1 = 7.9
3. Clc1ccc(-c2cc(Cl)ccc2Cl)cc1 = 7.92
4. ClC=C(Cl)Cl = 2.99

====

As shown below, each of these molecules has a reported log10 biotransformation half-life (days) value.
EXPERIMENTAL CONDITIONS: fish
TEST READOUT: log10 biotransformation half-life (days)

1. CCc1ccccc1[N+](=O)[O-] = -0.56
2. O=Cc1ccc(Cl)cc1 = 0.01
3. COP(=S)(OC)Oc1cc(Cl)c(Cl)cc1Cl = 0.95
4. C=Cc1ccc(C=C)cc1 = 0.5
5. O=C(O)c1cccc([N+](=O)[O-])c1C(=O)O = -1.57
6. CCCCCCCCC = 0.97
7. Cc1ccsc1 = -1.27

====

Each record here notes measured melting point.
TEST READOUT: melting point (°C)

1) CCC(=O)c1ccc(O)cc1O = 99
2) O=c1n(CCCN2CCN(c3cccc(Cl)c3)CC2)nc2ccccn12 = 87
3) Cn1c2ccccc2c2ccccc21 = 89.3
4) ClC(Cl)C(Cl)(Cl)Cl = -29
5) CC(C)CNCC(C)C = -73.5
6) COc1ccc2c(c1)c(CC(=O)OCC(=O)O)c(C)n2C(=O)c1ccc(Cl)cc1 = 152
7) CCC(=O)OCC(C)C = -71.4
8) Cc1c(Cl)cccc1Nc1ccccc1C(=O)O = 207
9) COC(=O)c1cc(OC)c(OC)c(OC)c1 = 83
10) O=c1cccco1 = 8.5
11) CC(C)(C)C(C)(C)Cl = 136
12) OCC(c1ccccc1)c1ccccc1 = 64.5
13) CC(C)Oc1cc(-n2nc(C(C)(C)C)oc2=O)c(Cl)cc1Cl = 90

====

Catalogue of boiling point readings, one per entry.
TEST READOUT: boiling point (°C)

1) O=[N+]([O-])CCl = 122
2) CCC(C)c1ccc(O)cc1 (stereo not drawn) = 241
3) Cc1ccccc1Oc1ccccc1 = 264
4) COCc1ccco1 = 132
5) O=C(Cl)/C=C/C(=O)Cl = 159
6) CCCCCCCCCCCl = 223
7) CC(C)CC[N+](=O)[O-] = 164
8) CCCCC(O)CCCC = 193
9) CC(CCO)C(F)(F)F (stereo not drawn) = 140
10) COc1ccc(I)cc1 = 238
11) CCC/C=C/CCCCCC = 193
12) Cc1ccc2nccc(C)c2c1 = 274
13) Clc1ccccc1C(Cl)(Cl)Cl = 264
14) CCCSCCC = 143
15) C=C(Br)CBr = 141
16) COCC1CCCO1 (stereo not drawn) = 140
17) c1ccc2c(c1)Cc1ccccc1N2 = 347
18) CC1CCC(O)CC1C (stereo not drawn) = 189
19) C=Cc1ccccc1OC = 197
20) CC(Cl)CO (stereo not drawn) = 134
21) COc1ccc(CO)cc1OC = 298
22) CC1(C)C2CC3C(C2)C31C = 152
23) C=CF = -72
24) CC=CCCl = 80.7
25) O=C(CCl)CCl = 173
26) C=C1CC=C(C(C)C)CC1 = 174
27) CCN1C(=O)CCC1=O = 236
28) CCCNC = 62
29) CC(=O)Oc1ccc(Cl)cc1Cl = 244
30) COc1c(F)c(F)c(F)c(F)c1F = 138
31) c1ccc(CCc2ccccc2)cc1 = 284
32) CCCCOc1ccccc1 = 210
33) CCCN(C(C)=O)c1ccccc1 = 268
34) C[C@H]1C[C@H]1C(=O)O = 191
35) Cc1cc2ccccc2oc1=O = 292
36) C=CC(=O)O = 141
37) CCC(C)I (stereo not drawn) = 120
38) CCCC(=O)C(=O)CCC = 168
39) CC(C)CN(CC(C)C)CC(C)C = 192
40) O=NN1CCCC1 = 214
41) CCC(C)(CC)CC = 118
42) CCC=C(C)CCC = 121
43) Cc1ccccc1C(=O)Cl = 214
44) COC(=O)CCCCCCCCCCCC(=O)OC = 332
45) CC#CC#CC = 130
46) C=C(C)c1cccc(C)c1 = 185
47) Nc1ccccc1-c1ccccc1 = 299
48) C=COC(C)(C)C = 75
49) CCOCCOc1ccccc1 = 230
50) Fc1cccnc1 = 108
51) c1cc2c3c(cccc3c1)CC2 = 279
52) Cc1ccc(N)c(C)c1 = 214
53) C=CCCCCCCCCCCCCCCC = 300
54) Cc1cc(-c2ccc(N)c(C)c2)ccc1N = 339
55) COc1ccc(OC)c(C=O)c1 = 270
56) FC(F)F = -82.1
57) O=C1C=C(Cl)C(=O)O1 = 196
58) CCC(C)=NO = 152

====

TEST READOUT: log10 vapour pressure (mmHg)

1) c1ccc2c(c1)-c1cccc3c1c-2cc1ccccc13 = -6.3
2) O=C(O)c1ccc2ccccc2c1 = -5.18
3) Clc1cc(Cl)c2oc3c(Cl)c(Cl)ccc3c2c1 = -7.48
4) O=C1CCCCCCCCCC1 = -1.31
5) Brc1ccc2c(c1)Oc1ccccc1O2 = -4.52
6) CCC(C)(C)C = 2.5
7) ClC=C(Cl)Cl = 1.84
8) Clc1cccc(Cl)c1Oc1ccccc1 = -2.89
9) C=C(c1ccccc1)c1ccccc1 = -1.88
10) CC(C)CCCCCOC(=O)C(C)Oc1ccc(Cl)cc1Cl (stereo not drawn) = -5.47
11) Cc1ccc2ccccc2c1 = -1.26
12) COc1ccc(N)cc1 = -1.52
13) OCCNc1ccccc1 = -2.66

====

Recorded melting point, one value per entry.
TEST READOUT: melting point (°C)

1) CCc1ccccn1 = -63.1
2) CCOCOc1ccc(C(=O)Nc2cccc(Cl)c2Cl)cc1 = 92.5
3) Clc1cc(Cl)nc(Cl)n1 = 22.5
4) C=CC(=O)OCC(C)C = -61
5) CNC(=O)n1cc(F)c(=O)[nH]c1=O = 226
6) COC(=O)c1ccccc1N = 24.5
7) CC(C)CC[N+](=O)[O-] = 97
8) CO[SiH](OC)OC = -115
9) CCOC(=O)c1cccc(Cl)c1O = 21
10) O=c1cc(-c2ccc(O)cc2)oc2cc(O)cc(O)c12 = 348
11) CC(C)NCC(O)c1ccc2ccccc2c1 (configuration not stated) = 108
12) NCCCCCC(=O)O = 205
13) N#CCN(CC#N)CCN(CC#N)CC#N = 128
14) O=c1ccc2cc3ccoc3c(O)c2o1 = 252
15) Cc1ccc(Cc2ccc(C)cc2)cc1 = 28
16) CNc1cnn(-c2cccc(C(F)(F)F)c2)c(=O)c1Cl = 184
17) CCCCCCCCOC(=O)c1ccccc1C(=O)OCCCCCCCC(C)C = 98
